- TEST TARGET: UniProt P31639
- Sequence (P31639 whole entry, species assumed): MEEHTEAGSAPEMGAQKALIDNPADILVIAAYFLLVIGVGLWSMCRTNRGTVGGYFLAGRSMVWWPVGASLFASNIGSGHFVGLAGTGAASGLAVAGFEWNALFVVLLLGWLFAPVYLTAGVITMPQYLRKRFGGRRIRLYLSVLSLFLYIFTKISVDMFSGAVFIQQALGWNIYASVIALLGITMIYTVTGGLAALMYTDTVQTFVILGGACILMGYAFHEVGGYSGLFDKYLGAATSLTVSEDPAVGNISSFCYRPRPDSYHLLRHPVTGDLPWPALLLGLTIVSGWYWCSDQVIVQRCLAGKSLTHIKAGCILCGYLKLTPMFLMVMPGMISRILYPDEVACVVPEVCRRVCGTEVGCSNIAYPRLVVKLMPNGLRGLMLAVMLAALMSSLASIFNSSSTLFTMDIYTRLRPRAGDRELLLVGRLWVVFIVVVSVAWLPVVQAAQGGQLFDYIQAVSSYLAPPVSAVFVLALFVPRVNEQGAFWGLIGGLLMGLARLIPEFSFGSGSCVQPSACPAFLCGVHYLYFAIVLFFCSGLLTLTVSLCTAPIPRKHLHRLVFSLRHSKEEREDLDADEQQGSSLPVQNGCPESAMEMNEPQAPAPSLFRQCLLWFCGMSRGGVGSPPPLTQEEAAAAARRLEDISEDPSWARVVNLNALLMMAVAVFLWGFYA
- TEST METHOD NOTES: [14C]-AMG absorption in stable SGLT2 expressing Flp-in CHO cells (SGLT-2 activity screening assay)
- CONDITION DETAILS: 14C-AMG uptake, 37° C. 1 h, 1% DMSO
Under this convention, met denotes IC50 strictly below 10 nM and not met denotes IC50 at or above 10 nM.

Example cases with answers are listed next.
>>> group("Cc1ccc([C@@H]2O[C@H](CO)[C@@H](O)[C@H](O)[C@H]2O)cc1Cc1ccc(OCc2cc3ccccc3o2)cc1")
"met"
>>> group("OC[C@H]1O[C@@H](c2ccc(Cl)c(Cc3ccc(OCc4cc5cccc(F)c5o4)cc3)c2)[C@H](O)[C@@H](O)[C@@H]1O")
"not met"
>>> group("COc1ccc([C@@H]2O[C@H](CO)[C@@H](O)[C@H](O)[C@H]2O)cc1Cc1ccc(OCc2cc3ccccc3o2)cc1")
"not met"
>>> group("OC[C@H]1O[C@@H](c2ccc(Cl)c(Cc3ccc(OC[C@H]4Cc5ccccc5O4)cc3)c2)[C@H](O)[C@@H](O)[C@@H]1O")
"met"
>>> group("Cc1ccc([C@@H]2O[C@H](CO)[C@@H](O)[C@H](O)[C@H]2O)cc1Cc1ccc(OC[C@@H]2Cc3ccccc3O2)cc1")
"met"

With those in mind, consider the next molecule.
Problem: # TODO verify IC50 < 10 nM strictly for this molecule: CC1(COc2ccc(Cc3cc([C@@H]4O[C@H](CO)[C@@H](O)[C@H](O)[C@H]4O)ccc3Cl)cc2)OCc2ccccc21 (single isomer, unassigned) [Compound I-115]
Result: not met

* * *

- TEST TARGET: UniProt P13866
- Sequence (P13866 1-664): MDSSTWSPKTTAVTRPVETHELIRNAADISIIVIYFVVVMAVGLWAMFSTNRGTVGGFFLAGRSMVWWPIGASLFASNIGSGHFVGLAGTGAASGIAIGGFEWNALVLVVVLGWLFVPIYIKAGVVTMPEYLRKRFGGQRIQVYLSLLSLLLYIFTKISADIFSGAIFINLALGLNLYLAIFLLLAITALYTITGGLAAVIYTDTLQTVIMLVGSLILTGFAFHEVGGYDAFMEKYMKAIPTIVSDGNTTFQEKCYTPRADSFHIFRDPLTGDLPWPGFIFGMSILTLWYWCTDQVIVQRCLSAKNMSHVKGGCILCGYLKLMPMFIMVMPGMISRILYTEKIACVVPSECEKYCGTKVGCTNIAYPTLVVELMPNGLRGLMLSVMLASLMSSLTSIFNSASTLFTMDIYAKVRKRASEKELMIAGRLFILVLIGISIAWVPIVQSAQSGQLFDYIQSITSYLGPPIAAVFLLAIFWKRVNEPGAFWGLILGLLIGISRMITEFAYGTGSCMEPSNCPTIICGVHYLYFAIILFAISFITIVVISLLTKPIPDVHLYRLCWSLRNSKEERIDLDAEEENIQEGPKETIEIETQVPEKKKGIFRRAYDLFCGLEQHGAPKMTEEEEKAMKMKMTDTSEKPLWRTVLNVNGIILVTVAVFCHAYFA
- TEST METHOD NOTES: [14C]-AMG absorption in stable SGLT1 expressing Flp-in CHO cells (SGLT-1 activity screening assay)
- CONDITION DETAILS: 14C-AMG uptake, 37° C. 1 h, 1% DMSO
# pIC50 per record follows
Scale: negative log10 of molar concentration, which is what pIC50 denotes.

Known pIC50 results, listed for orientation:
>>> readout_value("OC[C@H]1O[C@@H](c2ccc(Cl)c(Cc3ccc(OCc4cc5c(F)cccc5o4)cc3)c2)[C@H](O)[C@@H](O)[C@@H]1O")
6.35
>>> readout_value("Cc1ccc([C@@H]2O[C@H](CO)[C@@H](O)[C@H](O)[C@H]2O)cc1Cc1ccc(OCC2(C)Cc3ccccc3O2)cc1 (single isomer, unassigned) [Compound I-111]")
4.46
>>> readout_value("OC[C@H]1O[C@@H](c2ccc(Cl)c(Cc3ccc(OCc4cc5cccc(F)c5o4)cc3)c2)[C@H](O)[C@@H](O)[C@@H]1O")
6.35
>>> readout_value("CC1(COc2ccc(Cc3cc([C@@H]4O[C@H](CO)[C@@H](O)[C@H](O)[C@H]4O)ccc3Cl)cc2)Cc2ccccc2O1 (single isomer, unassigned) [Compound I-107]")
4.50
>>> readout_value("Cc1ccc([C@@H]2O[C@H](CO)[C@@H](O)[C@H](O)[C@H]2O)cc1Cc1ccc(OCC2OCc3ccccc32)cc1 (stereo partly drawn)")
6.49

Problem: Look up and report measured pIC50 for this entry: OC[C@H]1O[C@@H](c2ccc(F)c(Cc3ccc(OCC4Cc5ccccc5O4)cc3)c2)[C@H](O)[C@@H](O)[C@@H]1O (stereo partly drawn)
Result: 5.37

Problem: Name the recorded pIC50 of the item Cc1ccc([C@@H]2O[C@H](CO)[C@@H](O)[C@H](O)[C@H]2O)cc1Cc1ccc(OCC2Cc3ccccc3O2)cc1 (stereo partly drawn) [Compound I-25] in your answer.
Result: 6.74

Problem: Please give the documented pIC50 of CC1(COc2ccc(Cc3cc([C@@H]4O[C@H](CO)[C@@H](O)[C@H](O)[C@H]4O)ccc3Cl)cc2)OCc2ccccc21 (stereo partly drawn) [Compound I-108]
Result: 5.74

Problem: // fetch pIC50 given entry "OC[C@H]1O[C@@H](c2ccc(Cl)c(Cc3ccc(OCc4cc5ccccc5o4)c(F)c3)c2)[C@H](O)[C@@H](O)[C@@H]1O"
Result: 5.59

Problem: Give recorded pIC50. OC[C@H]1O[C@@H](c2ccc(Cl)c(Cc3ccc(OCC4Cc5cccc(F)c5O4)cc3)c2)[C@H](O)[C@@H](O)[C@@H]1O (stereo partly drawn)
Result: 6.85

Problem: Specify measured pIC50 for "COc1ccc([C@@H]2O[C@H](CO)[C@@H](O)[C@H](O)[C@H]2O)cc1Cc1ccc(OCc2cc3ccccc3o2)cc1" .
Result: 5.82

Problem: Fill in reported pIC50 for this entry: OC[C@H]1O[C@@H](c2ccc(Cl)c(Cc3ccc(OCC4Cc5c(F)cccc5O4)cc3)c2)[C@H](O)[C@@H](O)[C@@H]1O (stereo partly drawn)
Result: 6.44

Problem: Annotate the compound Cc1ccc([C@@H]2O[C@H](CO)[C@@H](O)[C@H](O)[C@H]2O)cc1Cc1ccc(OCC2(C)OCc3ccccc32)cc1 (single isomer, unassigned) [Compound I-113] with its measured pIC50.
Result: 6.18

Problem: Answer with reported pIC50 of Cc1ccc([C@@H]2O[C@H](CO)[C@@H](O)[C@H](O)[C@H]2O)cc1Cc1ccc(OCC2Cc3ccccc3O2)cc1 (single isomer, unassigned) [Compound I-27]
Result: 6.40

Problem: Answer with the recorded pIC50 for the compound listed here: Cc1ccc([C@@H]2O[C@H](CO)[C@@H](O)[C@H](O)[C@H]2O)cc1Cc1ccc(OCC2(C)OCc3ccccc32)cc1 (stereo partly drawn) [Compound I-112]
Result: 6.75

Problem: Identify measured pIC50 corresponding to OC[C@H]1O[C@@H](c2ccc(Cl)c(Cc3ccc(OCC4Cc5cc(F)ccc5O4)cc3)c2)[C@H](O)[C@@H](O)[C@@H]1O (stereo partly drawn)
Result: 6.33

The values you see were collected from patent US9914724B2.
